Values from the supplement of paper PMC11061612

- System: TGBC1TKB (Biliary Tract Carcinoma)
- PROTOCOL: combination Emax (second highest fraction inhibited in the dose matrix, 72 h); higher = more inhibition; extreme values may be limits of the assay
MEASURED PARAMETER: combination Emax

The recorded combination Emax for entry Cc1c2c(nn1C)CSCc1cc(n(C)n1)CSc1cc(c3ccccc3c1)OCCCc1c(C(=O)O)n(C)c3c-2c(Cl)ccc13 [AZD5991] + C[C@@H]1COCCN1C2=NC(=NC(=C2)C3(CC3)[S@](=N)(=O)C)C4=C5C=CNC5=NC=C4 [AZD6738] (first compound max 1 µM, 7x7, partner max 10 µM) equals 0.403

The recorded combination Emax for entry NC1(C(=O)N[C@@H](CCO)c2ccc(Cl)cc2)CCN(c2ncnc3[nH]ccc23)CC1 [Capivasertib] + CC(=O)c1c(C)c2cnc(Nc3ccc(N4CCNCC4)cn3)nc2n(C2CCCC2)c1=O [Palbociclib] (first compound max 10 µM, 7x7, partner max 10 µM) equals 0.344

The recorded combination Emax for entry C=CCn1c(=O)c2cnc(Nc3ccc(N4CCN(C)CC4)cc3)nc2n1-c1cccc(C(C)(C)O)n1 [AZD1775] + C[C@@H]1COCCN1C2=NC(=NC(=C2)C3(CC3)[S@](=N)(=O)C)C4=C5C=CNC5=NC=C4 [AZD6738] (first compound max 1 µM, partner max 10 µM) equals 0.502

Others:
The recorded combination Emax for entry CS(=O)(=O)CCNCc1ccc(-c2ccc3ncnc(Nc4ccc(OCc5cccc(F)c5)c(Cl)c4)c3c2)o1 [Lapatinib] + Cn1cnc2c(F)c(Nc3ccc(Br)cc3Cl)c(C(=O)NOCCO)cc21 [Selumetinib] (first compound max 10 µM, 7x7, partner max 10 µM) equals 0.288

====

- Test system: MPP-89 (Mesothelioma)
- PROTOCOL: combination Emax (second highest fraction inhibited in the dose matrix, 72 h); higher = more inhibition; extreme values may be limits of the assay
MEASURED PARAMETER: combination Emax
One number for each entry.

The recorded combination Emax for entry CC1(C)CCC(CN2CCN(c3ccc(C(=O)NS(=O)(=O)c4ccc(NCC5CCOCC5)c([N+](=O)[O-])c4)c(Oc4cnc5[nH]ccc5c4)c3)CC2)=C(c2ccc(Cl)cc2)C1 [Venetoclax] + Cc1cc2ncnn2cc1Nc1ncc2c(n1)n(C1CCOCC1)c(=O)n2C [AZD7648] (first compound max 1 µM, 7x7, partner max 10 µM) equals 0.418

Turning to the following molecule.
The recorded combination Emax for entry CC1(C)CCC(CN2CCN(c3ccc(C(=O)NS(=O)(=O)c4ccc(NCC5CCOCC5)c([N+](=O)[O-])c4)c(Oc4cnc5[nH]ccc5c4)c3)CC2)=C(c2ccc(Cl)cc2)C1 [Venetoclax] + C[C@@H]1COCCN1C2=NC(=NC(=C2)C3(CC3)[S@](=N)(=O)C)C4=C5C=CNC5=NC=C4 [AZD6738] (first compound max 1 µM, 7x7, partner max 10 µM) equals 0.686

====

I'd appreciate it if you could supply Bliss excess values for the items below.
- Test system: LOXIMVI (Melanoma);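 further: after 72 h of two-drug dosing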
- PROTOCOL: Bliss excess, mean over the matrix (fraction); higher = more synergy
Give bare numbers.

Reference set (2 entries):
The recorded Bliss excess for entry Cc1cc2ncnn2cc1Nc1ncc2c(n1)n(C1CCOCC1)c(=O)n2C [AZD7648] + C=CCn1c(=O)c2cnc(Nc3ccc(N4CCN(C)CC4)cc3)nc2n1-c1cccc(C(C)(C)O)n1 [AZD1775] (first compound max 10 µM, partner max 1 µM) equals -0.0123

The recorded Bliss excess for entry CN(CCO)CC[C@H](CSc1ccccc1)Nc1ccc(S(=O)(=O)NC(=O)c2ccc(N3CCC([C@@H](O)c4ccccc4-c4ccc(Cl)cc4)CC3)cc2)cc1S(=O)(=O)C(F)(F)F [AZD4320] + Nc1ccn([C@@H]2O[C@H](CO)[C@@H](O)C2(F)F)c(=O)n1 [Gemcitabine] (first compound max 1 µM, 7x7, partner max 0.3 µM) equals 0.021

Turning to the following compound.
The recorded Bliss excess for entry C=CCn1c(=O)c2cnc(Nc3ccc(N4CCN(C)CC4)cc3)nc2n1-c1cccc(C(C)(C)O)n1 [AZD1775] + C[C@@H]1COCCN1C2=NC(=NC(=C2)C3(CC3)[S@](=N)(=O)C)C4=C5C=CNC5=NC=C4 [AZD6738] (first compound max 1 µM, partner max 10 µM) equals -0.0609

====

I'd appreciate it if you could supply combination Emax values for the items below.
- Test system: CAL-72 (Osteosarcoma)
- PROTOCOL: combination Emax (second highest fraction inhibited in the dose matrix, 72 h); higher = more inhibition; extreme values may be limits of the assay
Give bare numbers.

Reference set (7 entries):
The recorded combination Emax for entry Cc1cc2ncnn2cc1Nc1ncc2c(n1)n(C1CCOCC1)c(=O)n2C [AZD7648] + CN(C)CCCOc1ccc(-c2ccc3ncc4c(c3c2)n(C2CCOCC2)c(=O)n4C)cn1 [AZD0156] (first compound max 10 µM, 7x7, partner max 1 µM) equals 0.399

The recorded combination Emax for entry C[C@@H]1COCCN1c1cc(C2([S@](C)(=N)=O)CC2)nc(-c2ccnc3[nH]ccc23)n1 [AZD6738] + C1CC(C1)(C(=O)[O-])C(=O)[O-].N.N.[Pt+2] [Carboplatin] (first compound max 10 µM, 7x7, partner max 10 µM) equals 0.718

The recorded combination Emax for entry CCN(CCO)CCCOc1ccc2c(Nc3cc(CC(=O)Nc4cccc(F)c4)[nH]n3)ncnc2c1 [AZD2811] + C=CCn1c(=O)c2cnc(Nc3ccc(N4CCN(C)CC4)cc3)nc2n1-c1cccc(C(C)(C)O)n1 [AZD1775] (first compound max 1 µM, partner max 1 µM) equals 0.728

The recorded combination Emax for entry Cn1cnc2c(F)c(Nc3ccc(Br)cc3Cl)c(C(=O)NOCCO)cc21 [Selumetinib] + CCN(CCO)CCCOc1ccc2c(Nc3cc(CC(=O)Nc4cccc(F)c4)[nH]n3)ncnc2c1 [AZD2811] (first compound max 10 µM, 7x7, partner max 1 µM) equals 0.181

The recorded combination Emax for entry Cc1cc2ncnn2cc1Nc1ncc2c(n1)n(C1CCOCC1)c(=O)n2C [AZD7648] + O=C(c1cc(Cc2n[nH]c(=O)c3ccccc23)ccc1F)N1CCN(C(=O)C2CC2)CC1 [Olaparib] (first compound max 10 µM, 7x7, partner max 10 µM) equals 0.322

The recorded combination Emax for entry Cc1c2c(nn1C)CSCc1cc(n(C)n1)CSc1cc(c3ccccc3c1)OCCCc1c(C(=O)O)n(C)c3c-2c(Cl)ccc13 [AZD5991] + Nc1ccn([C@@H]2O[C@H](CO)[C@@H](O)C2(F)F)c(=O)n1 [Gemcitabine] (first compound max 1 µM, 7x7, partner max 0.3 µM) equals 0.613

The recorded combination Emax for entry COc1cccc(OCCCN)c1-c1cc(Nc2cnc(C#N)cn2)n[nH]1 [Prexasertib] + O=C(c1cc(Cc2n[nH]c(=O)c3ccccc23)ccc1F)N1CCN(C(=O)C2CC2)CC1 [Olaparib] (first compound max 1 µM, 7x7, partner max 10 µM) equals 0.81

Turning to the following molecule.
The recorded combination Emax for entry CS(=O)(=O)CCNCc1ccc(-c2ccc3ncnc(Nc4ccc(OCc5cccc(F)c5)c(Cl)c4)c3c2)o1 [Lapatinib] + Cn1cnc2c(F)c(Nc3ccc(Br)cc3Cl)c(C(=O)NOCCO)cc21 [Selumetinib] (first compound max 10 µM, 7x7, partner max 10 µM) equals 0.446

====

- System: SW1710 (Bladder Carcinoma)
- PROTOCOL: combination Emax (second highest fraction inhibited in the dose matrix, 72 h); higher = more inhibition; extreme values may be limits of the assay
MEASURED PARAMETER: combination Emax

The recorded combination Emax for entry Cc1cc2ncnn2cc1Nc1ncc2c(n1)n(C1CCOCC1)c(=O)n2C [AZD7648] + CN(C)CCCOc1ccc(-c2ccc3ncc4c(c3c2)n(C2CCOCC2)c(=O)n4C)cn1 [AZD0156] (first compound max 10 µM, 7x7, partner max 1 µM) equals 0.217

The recorded combination Emax for entry CC1(C)CCC(CN2CCN(c3ccc(C(=O)NS(=O)(=O)c4ccc(NCC5CCOCC5)c([N+](=O)[O-])c4)c(Oc4cnc5[nH]ccc5c4)c3)CC2)=C(c2ccc(Cl)cc2)C1 [Venetoclax] + CN(C)CCCOc1ccc(-c2ccc3ncc4c(c3c2)n(C2CCOCC2)c(=O)n4C)cn1 [AZD0156] (first compound max 1 µM, 7x7, partner max 1 µM) equals 0.239

The recorded combination Emax for entry COc1cccc(OCCCN)c1-c1cc(Nc2cnc(C#N)cn2)n[nH]1 [Prexasertib] + CCc1c2c(nc3ccc(O)cc13)-c1cc3c(c(=O)n1C2)COC(=O)[C@]3(O)CC [SN-38] (first compound max 1 µM, 7x7, partner max 0.3 µM) equals 0.86

The recorded combination Emax for entry Cc1cc2ncnn2cc1Nc1ncc2c(n1)n(C1CCOCC1)c(=O)n2C [AZD7648] + O=C(c1cc(Cc2n[nH]c(=O)c3ccccc23)ccc1F)N1CCN(C(=O)C2CC2)CC1 [Olaparib] (first compound max 10 µM, 7x7, partner max 10 µM) equals 0.0781

The recorded combination Emax for entry CCc1c2c(nc3ccc(O)cc13)-c1cc3c(c(=O)n1C2)COC(=O)[C@]3(O)CC [SN-38] + O=C(c1cc(Cc2n[nH]c(=O)c3ccccc23)ccc1F)N1CCN(C(=O)C2CC2)CC1 [Olaparib] (first compound max 0.3 µM, 7x7, partner max 10 µM) equals 0.327

The recorded combination Emax for entry Cn1cnc2c(F)c(Nc3ccc(Br)cc3Cl)c(C(=O)NOCCO)cc21 [Selumetinib] + CCN(CCO)CCCOc1ccc2c(Nc3cc(CC(=O)Nc4cccc(F)c4)[nH]n3)ncnc2c1 [AZD2811] (first compound max 10 µM, 7x7, partner max 1 µM) equals 0.214

Turning to the following molecule.
The recorded combination Emax for entry C[C@@H]1COCCN1c1cc(C2([S@](C)(=N)=O)CC2)nc(-c2ccnc3[nH]ccc23)n1 [AZD6738] + C1CC(C1)(C(=O)[O-])C(=O)[O-].N.N.[Pt+2] [Carboplatin] (first compound max 10 µM, 7x7, partner max 10 µM) equals 0.429
